experimental-target: recombinant human ACE2 (Homo sapiens, UniProt Q9BYF1)
Sequence (Q9BYF1 18-805): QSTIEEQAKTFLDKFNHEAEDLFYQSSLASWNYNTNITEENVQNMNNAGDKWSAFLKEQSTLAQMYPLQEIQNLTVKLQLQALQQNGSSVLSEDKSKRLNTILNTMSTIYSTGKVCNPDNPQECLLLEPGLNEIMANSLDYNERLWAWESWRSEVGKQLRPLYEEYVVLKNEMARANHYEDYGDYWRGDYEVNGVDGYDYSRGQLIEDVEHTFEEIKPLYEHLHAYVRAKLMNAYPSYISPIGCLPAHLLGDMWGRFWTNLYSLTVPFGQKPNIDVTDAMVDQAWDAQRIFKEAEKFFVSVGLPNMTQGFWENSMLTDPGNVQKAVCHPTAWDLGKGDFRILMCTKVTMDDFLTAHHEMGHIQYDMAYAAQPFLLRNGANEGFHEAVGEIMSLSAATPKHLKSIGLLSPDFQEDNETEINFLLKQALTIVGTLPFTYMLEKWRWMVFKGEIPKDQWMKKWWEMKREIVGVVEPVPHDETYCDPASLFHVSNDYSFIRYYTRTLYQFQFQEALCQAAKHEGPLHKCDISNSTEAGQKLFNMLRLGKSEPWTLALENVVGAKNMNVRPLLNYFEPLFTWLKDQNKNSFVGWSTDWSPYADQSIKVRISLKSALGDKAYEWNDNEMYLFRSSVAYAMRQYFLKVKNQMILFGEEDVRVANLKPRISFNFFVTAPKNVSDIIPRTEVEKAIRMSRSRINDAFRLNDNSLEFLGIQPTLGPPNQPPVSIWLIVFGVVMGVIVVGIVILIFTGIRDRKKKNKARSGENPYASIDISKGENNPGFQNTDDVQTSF

{"columns": ["binder", "binding result"],
 "data": [
  ["WCSL IgG1 (sheet row 13) (antibody, V domains shown) VH: EVQLVESGGGLVKPGGSLRLSCAASGFTFSSYSMNWVRQAPGKGLEWVSSISSSSSYIYYADSVKGRFTISRDNAKNSLYLQMNSLRAEDTAVYYCARATTVVTPGYFQHWGQGTLVTVSS VL: EIVLTQSPATLSLSPGQRATLSCRASQSVSSSLAWYQQKPGQAPRLLIYDASDRATDIPARFSGSGSGTDFTLTISSLEPEDFAVYYCQQRTNWPPLTFGGGTKVEIK", "binds"],
  ["WCSL IgG1 (sheet row 10) (antibody, V domains shown) VH: EVQLVESGGGLVKPGGSLRLSCAASGFTFSSYSMNWVRQAPGKGLEWVSSISSSSGYIYYSDSLKGRFTISRDNAKNSLYLQMNSLTAEDTAVYYCAREGHIASRGWGWFDSWGQGTLVTVSS VL: DIVMTQSPVSLAVTPGESASISCRSSQSLLHRNGYNYVDWYLQKPGQSPQLLIYLGSTRASGVPDRFSGSGSGTDFSLQITRVEAEDVGVYYCMQPLEIPLTFGGGTKLEIK", "binds"],
  ["WCSL IgG1 (sheet row 18) (antibody, V domains shown) VH: EVQLVESGGGVVQPGRSLRLSCAASGFTFSSYGMHWVRQAPGKGLEWVSYIYPSGGGAYYADSVQGRFTVSRDNAKNSVYLQMNSLRVEDTAVYYCTRDFWSAPIPMWGQGTLVTVSS VL: DIVMTQSPVSLPVTPGEPASISCRSSQSLLHSNGHNYLNWYLQKPGQSPHLLIYLGSNRASGVPDRFSGSGSGTDFTLNISRVEAEDVGVYYCMQALQTPWTFGQGTKVEIK", "binds"]
]}

Taken from paper PMC10415184.
